- assaySystem: human GluN1/GluN2B NMDA receptors (Homo sapiens, UniProt Q05586+Q13224)
- Sequence (Q13224 27-1484, other chains not shown): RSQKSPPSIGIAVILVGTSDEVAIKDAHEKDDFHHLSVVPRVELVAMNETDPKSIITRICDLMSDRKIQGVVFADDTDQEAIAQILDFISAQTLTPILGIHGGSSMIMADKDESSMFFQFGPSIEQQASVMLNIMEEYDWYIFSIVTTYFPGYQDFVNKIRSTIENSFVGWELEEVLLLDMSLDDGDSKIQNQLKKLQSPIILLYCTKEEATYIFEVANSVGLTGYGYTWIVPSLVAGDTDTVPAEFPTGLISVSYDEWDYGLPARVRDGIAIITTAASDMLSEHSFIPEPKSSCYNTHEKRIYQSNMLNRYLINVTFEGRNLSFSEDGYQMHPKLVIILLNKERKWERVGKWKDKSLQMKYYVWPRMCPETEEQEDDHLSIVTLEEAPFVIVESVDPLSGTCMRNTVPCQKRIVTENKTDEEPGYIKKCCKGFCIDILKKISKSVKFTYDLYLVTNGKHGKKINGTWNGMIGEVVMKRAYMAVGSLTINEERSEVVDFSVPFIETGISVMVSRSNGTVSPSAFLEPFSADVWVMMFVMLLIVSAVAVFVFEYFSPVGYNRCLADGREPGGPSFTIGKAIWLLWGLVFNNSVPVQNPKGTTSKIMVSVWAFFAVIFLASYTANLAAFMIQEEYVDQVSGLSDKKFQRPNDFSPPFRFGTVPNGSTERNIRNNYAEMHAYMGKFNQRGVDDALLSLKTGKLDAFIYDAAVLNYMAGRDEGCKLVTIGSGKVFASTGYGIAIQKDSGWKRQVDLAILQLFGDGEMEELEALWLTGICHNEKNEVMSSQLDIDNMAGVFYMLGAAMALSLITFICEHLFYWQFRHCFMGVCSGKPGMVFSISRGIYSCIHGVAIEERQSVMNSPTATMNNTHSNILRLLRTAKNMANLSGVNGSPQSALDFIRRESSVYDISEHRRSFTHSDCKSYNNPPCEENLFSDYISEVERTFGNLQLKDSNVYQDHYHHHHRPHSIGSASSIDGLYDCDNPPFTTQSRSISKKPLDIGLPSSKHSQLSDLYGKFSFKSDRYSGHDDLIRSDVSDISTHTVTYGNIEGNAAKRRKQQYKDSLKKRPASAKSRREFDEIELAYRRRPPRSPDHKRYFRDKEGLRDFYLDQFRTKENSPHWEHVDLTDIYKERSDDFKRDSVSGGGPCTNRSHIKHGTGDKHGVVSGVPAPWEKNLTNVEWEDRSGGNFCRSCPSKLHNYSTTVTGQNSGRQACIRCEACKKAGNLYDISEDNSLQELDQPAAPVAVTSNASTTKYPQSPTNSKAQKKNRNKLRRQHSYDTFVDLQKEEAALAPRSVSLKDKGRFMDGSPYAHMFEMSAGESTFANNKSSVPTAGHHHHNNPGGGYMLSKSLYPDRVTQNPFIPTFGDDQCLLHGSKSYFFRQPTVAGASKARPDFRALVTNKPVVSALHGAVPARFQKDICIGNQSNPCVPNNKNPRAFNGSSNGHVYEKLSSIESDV
- testName: Cell-based calcium flux (FLIPR) assay on cloned human NR1/NR2B ion channels expressed in mammalian cells
- experimentalParameters: standard assay; glutamate at ~EC80; FLIPR calcium flux
The label is Y for IC50 below 0.09 µM and N for IC50 equal to or exceeding 0.09 µM.

Please indicate whether the reported IC50 of Cc1cc(-n2cc(COc3ncc(F)cn3)nn2)ccc1F is strictly below 0.09 µM.
Y

Is IC50 strictly under 0.09 µM for the entry CC(F)(F)c1cc(-n2cc(COc3ncc(C4CC4)cn3)nn2)ccc1Cl ?
Y

In the record for CC(=O)c1cnc(OCc2cn(-c3ccc(Cl)c(C(C)(F)F)c3)nn2)nc1 , is IC50 less than 0.09 µM?
Y

Does the reported IC50 of the following compound sit strictly below 0.09 µM? CCNc1cnc(OCc2cn(-c3ccc(F)c(C(F)(F)F)c3)nn2)nc1
N

Is the reported IC50 for CC(F)(F)c1cc(-n2cc(COc3nccc(C(F)(F)F)n3)nn2)ccc1F strictly below 0.09 µM?
N

Dear colleague, could you confirm whether IC50 of Fc1ccc(-n2cc(COc3ncc(N4CC(F)C4)cn3)nn2)cc1C(F)(F)F falls below 0.09 µM? Thanks.
Y

Please let me know if CC(F)(F)c1cc(-n2cc(COc3nccc(CO)n3)nn2)ccc1Cl shows IC50 below 0.09 µM.
Y

Is 0.09 µM strictly greater than the compound's reported IC50? compound: Fc1ccc(-n2cc(COc3cnccn3)nn2)cc1C(F)(F)F
N

Is 0.09 µM strictly greater than the compound's reported IC50? compound: Fc1ccc(-n2cc(COc3ncccc3F)nn2)cc1C(F)(F)F
N

Regarding Cc1c(F)ccc(-n2cc(COc3nccc(C(C)C)n3)nn2)c1F , kindly confirm whether its IC50 is beneath 0.09 µM.
N

# strict comparison: is reported IC50 < 0.09 µM? input = Cc1cc(C)nc(OCc2cn(-c3ccc(Cl)c(C(C)(F)F)c3)nn2)n1
Y

Lab log: compare recorded IC50 with 0.09 µM; is it strictly lower for Cc1cc(-n2cc(COc3ncc(C(F)F)cn3)nn2)c(F)cc1F ?
N

Hello, I'm reviewing records and need to know if IC50 of CC(C)c1ccnc(OCc2cn(-c3ccc(F)c(OC(F)F)c3)nn2)n1 is below 0.09 µM. Could you check?
N

Decide: IC50 of Cc1cnc(OCc2cn(-c3ccc(F)c(Cl)c3)nn2)nc1 strictly below 0.09 µM?
Y

Could you please tell me whether IC50 recorded for CN(C)c1ccnc(OCc2cn(-c3ccc(F)c(OC(F)F)c3)nn2)n1 is less than 0.09 µM?
Y

Please state whether IC50 is below 0.09 µM for CC(C)c1ccnc(OCc2cn(-c3ccc(Cl)c(C(F)F)c3)nn2)n1
N

# strict comparison: is reported IC50 < 0.09 µM? input = Cc1nc(OCc2nnn(-c3ccc(F)c(C(C)(F)F)c3)c2C)ncc1Cl
N

Is IC50 strictly under 0.09 µM for the entry Fc1ccc(-n2cc(COc3nccc(-c4ccccc4)n3)nn2)cc1OC(F)F ?
N

----------
- assaySystem: human GluN1/GluN2B NMDA receptors (Homo sapiens, UniProt Q05586+Q13224)
- testName: Cell-based calcium flux (FLIPR) assay on cloned human NR1/NR2B ion channels expressed in mammalian cells
- experimentalParameters: standard assay; human GluN1/GluN2B, calcium flux (FLIPR), glutamate ~EC80
measurementType: log10 of IC50 (log10 of the value in µM)
Form field - Quantity: IC50; Unit: µM; Scale: log10

Return reported log10 of IC50 for target or system human GluN1/GluN2B NMDA receptors (Homo sapiens, UniProt Q05586+Q13224), item COc1cnc(OCc2cn(-c3cccc(OC(F)F)c3)nn2)nc1 [Example 325] .
-1.57

Name the value of log10 of IC50 reported for Cc1cnc(OCc2cn(-c3ccccc3C)nn2)nc1 [Example 240] when tested on human GluN1/GluN2B NMDA receptors (Homo sapiens, UniProt Q05586+Q13224).
0.75

State, for human GluN1/GluN2B NMDA receptors (Homo sapiens, UniProt Q05586+Q13224), measured log10 of IC50 of the compound listed here: FC(F)Oc1cc(-n2cc(COc3cccnc3)nn2)ccc1Cl [Example 5]
-0.48

Please look at Cc1cnc(OCc2cn(-c3cccc(OC(F)(F)F)c3)nn2)nc1 [Example 342] and tell me its recorded log10 of IC50 on human GluN1/GluN2B NMDA receptors (Homo sapiens, UniProt Q05586+Q13224).
-1.77

Report measured log10 of IC50 on human GluN1/GluN2B NMDA receptors (Homo sapiens, UniProt Q05586+Q13224); entry: CC(C)c1cnc(OCc2cn(-c3ccc(Cl)c(C(F)F)c3)nn2)nc1 [Example 48]
-2.10

Write down the reported log10 of IC50 (system: human GluN1/GluN2B NMDA receptors (Homo sapiens, UniProt Q05586+Q13224)) of Fc1cccc(-n2cc(COc3ncccn3)nn2)c1 [Example 228]
0.75

Look up human GluN1/GluN2B NMDA receptors (Homo sapiens, UniProt Q05586+Q13224) data: log10 of IC50 of CC(C)(O)c1cnc(OCc2cn(-c3ccc(F)c(C4CCC4)c3)nn2)nc1 [Example 178] , then report it.
-0.46

Write down measured log10 of IC50 (human GluN1/GluN2B NMDA receptors (Homo sapiens, UniProt Q05586+Q13224)) for this compound. Cc1ccc(OCc2cn(-c3ccc(Cl)c(OC(F)F)c3)nn2)cn1 [Example 104]
-0.14

For human GluN1/GluN2B NMDA receptors (Homo sapiens, UniProt Q05586+Q13224), give the measured log10 of IC50 of the entry Fc1cnc(OCc2cn(-c3ccc4c(c3)OC(F)(F)O4)nn2)nc1 [Example 358]
-0.14

Give log10 of IC50 only, for Fc1cnc(OCc2cn(-c3ccc(Cl)c(OC(F)F)c3)nn2)nc1 [Example 95] , using human GluN1/GluN2B NMDA receptors (Homo sapiens, UniProt Q05586+Q13224) data.
-1.64

Give log10 of IC50 for COc1cnc(OCc2cn(-c3ccc(F)c(C(F)(F)F)c3)nn2)nc1 [Example 73] tested on human GluN1/GluN2B NMDA receptors (Homo sapiens, UniProt Q05586+Q13224).
-2.10

Recall the reported log10 of IC50 of FC(F)Oc1cccc(-n2cc(COc3ncc(Cl)cn3)nn2)c1 [Example 326] on human GluN1/GluN2B NMDA receptors (Homo sapiens, UniProt Q05586+Q13224) and write it down.
-1.16

Print human GluN1/GluN2B NMDA receptors (Homo sapiens, UniProt Q05586+Q13224) log10 of IC50 for CC(=O)c1cnc(OCc2cn(-c3cccc(OC(F)(F)F)c3)nn2)nc1 [Example 344] .
-1.21

Consider the compound CC(C)c1cccc(-n2cc(COc3ncc(Cl)cn3)nn2)c1 [Example 265] tested on human GluN1/GluN2B NMDA receptors (Homo sapiens, UniProt Q05586+Q13224); state its log10 of IC50.
-1.80

Param request: log10 of IC50 | system human GluN1/GluN2B NMDA receptors (Homo sapiens, UniProt Q05586+Q13224) | item CCc1cnc(OCc2cn(-c3cc(C)cc(C)c3)nn2)nc1 [Example 365]
-1.66

Supply log10 of IC50 measured with human GluN1/GluN2B NMDA receptors (Homo sapiens, UniProt Q05586+Q13224) for FC(F)c1cccc(-n2cc(CNc3ncccn3)nn2)c1 [Example 6] .
1.03

Lab note: record log10 of IC50 of FC(F)c1cc(-n2cc(COc3ncccn3)nn2)ccc1N1CCC1 [Example 188] tested on human GluN1/GluN2B NMDA receptors (Homo sapiens, UniProt Q05586+Q13224).
0.66

Tell me log10 of IC50 of Cc1cnc(OCc2cn(-c3ccc(C(F)(F)F)s3)nn2)nc1 [Example 120] when tested on human GluN1/GluN2B NMDA receptors (Homo sapiens, UniProt Q05586+Q13224).
-2.30

// output log10 of IC50; input FC(F)c1cc(-n2cc(COc3ncccn3)nn2)ccc1Cl [Example 1] ; system human GluN1/GluN2B NMDA receptors (Homo sapiens, UniProt Q05586+Q13224)
-1.31
